Sourced from the supplement of paper PMC9170038

System: MS2 coat protein
Assay: apparent KD of MS2 coat protein; designed switch direction (-1 OFF switch, 1 ON switch): 1; higher = weaker reporter binding
Conditions: Eterna round: R98; input ligand: FMN 200 uM
A collection of sequences and their measured apparent KD of MS2 coat protein
measured.quantity: apparent KD of MS2 coat protein (nM)

- polymer.sequence: "CCGGAAACGGGUAGCUGUACAUGAGGAUCACCCAUGUGAUCAUAGGAUAUGGUUCCUAAUUGGAACCAGAAGGAUGUCAGCUAC [Mat - Same State NG 3 - JL Mod - D86]"
  measured.quantity: "apparent KD of MS2 coat protein"
  recorded.result: 434
- polymer.sequence: "AUUAAUGGGUGAGGAUAUGCACAGGAUCACCGUGUAGAAGGCAUCAGGUAGAAGGUGCAGAGGAUCACCCUGUAAGGAUAUAUC [pwkr2 ssNG1 DX.13]"
  measured.quantity: "apparent KD of MS2 coat protein"
  recorded.result: 858
- polymer.sequence: "CUAAUUUAUUGAGGAUAUGCACAGGAUCACCGUGUAGAAGGCAUCAGGGAGAAGGUGCAGAGGAUCACCCUGUAAGGAUAUCAA [pwkr2 ssNG1 DX.3]"
  measured.quantity: "apparent KD of MS2 coat protein"
  recorded.result: 105
- polymer.sequence: "GGUCCAAUAUGAGGAUAUAGCACCUUAUUGGUGCUAGAAGGCGUGUCGGUAGACAUGAGGAUCACCCAUGUAUUACAAUGGACC [SameState #28 NG1]"
  measured.quantity: "apparent KD of MS2 coat protein"
  recorded.result: 25.6
- polymer.sequence: "UUGACGUCGGAUACAUGAGGAUCACCCAUGUGCCCGCGGGCACAGGAUAUCGAACAUAGUAUUGACGAGAAGGGUGACAGAGAG [Anxeenerce]"
  measured.quantity: "apparent KD of MS2 coat protein"
  recorded.result: 664
- polymer.sequence: "CUAGCAUACCGAGGAUAUUCAUAUAAUAAAUAAACAUGAGGAUCACCCAUGUGGCGAAAGCCUAGGGAGAAGGCGGAAUGCUAG [salish99_SSNG2_r2_004]"
  measured.quantity: "apparent KD of MS2 coat protein"
  recorded.result: 20.1
- polymer.sequence: "GUAGCAUACCGAGGAUAUUCAUAUAAUAAAUAAACAUGAGGAUCACCCAUGUGGCGAAAGCCUAGGGAGAAGGCGGAAUGCUAU [salish99_SSNG2_r2_110]"
  measured.quantity: "apparent KD of MS2 coat protein"
  recorded.result: 24.2
- polymer.sequence: "UGCACAUGAGGAUCACCCAUGUAUUGUUCGGUUUAUAGUAGUGAGGAUAUGCAAAGUAUAAGGAAGCAGAAGGCACAGGAUUCA [JR_SSNG3_Sub045]"
  measured.quantity: "apparent KD of MS2 coat protein"
  recorded.result: 19.5

* * *

A collection of sequences and their measured apparent KD of MS2 coat protein
Test system: MS2 coat protein
Assay: apparent KD of MS2 coat protein; designed switch direction (-1 OFF switch, 1 ON switch): -1; higher = weaker reporter binding
Conditions: input ligand: FMN 200 uM

- polymer.sequence: "UCACGGGACUGAGGAUAUACAUGAAUUAUUUUUGUAGAAGGCAGAAUGUUAGAUUAUACACUAUACAUGAGGAUCACCCAUGUU [JR_ExcNG1_Sub023] (Eterna round: R96, puzzle: Exclusion NG 1)"
  apparent KD of MS2 coat protein, nM: 16.1
- polymer.sequence: "UGUGUGAGACAGGAUAUGCCAGAUAUAUUACUGGUAGAAGGGUCUACAUGAGGAUCACCCAUGUGGCCGGCCGG [Ex6 #85] (Eterna round: R97, puzzle: Exclusion 6)"
  apparent KD of MS2 coat protein, nM: 65.3
- polymer.sequence: "UUUCAGCUAGGAUAUGCCCUGAUGCACAUGAGGAUCACCCAUGUCGGCUUGUGUAUGAGCGCAGAAGGAGCGAAAA [EX5 C.17] (Eterna round: R97, puzzle: Exclusion 5)"
  apparent KD of MS2 coat protein, nM: 783

* * *

Test system: K4 kissing-loop RNA reporter;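 note: bound reporter read as fluorescence of individual clusters on recovered sequencing chips by microscopy, with normalized cluster intensities fitted with a binding model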
Assay: apparent KD of K4 kissing-loop reporter; higher = weaker reporter binding
Conditions: Eterna round: R107; input ligand: none
Binary call on apparent KD of K4 kissing-loop reporter: Criterion met from 500 nM upward, Criterion not met beneath that.

- polymer.sequence: "CCUAUCUGUUACGAUACCAGUCAAAGAUAUUUUAUCAAUGCCCUCACCGAGUGAUGUUCGGACCCUUGGCAGCGUCUGGGAUAGG [pnnbmullin]"
  answer.label: "Criterion not met"
- polymer.sequence: "GGUCGGAGUGAUGUUCCGAGCUUCAGUCAUCGAGGACCGGUACGGCCGCCACUCGUCUACUAUGACGUAUCACCCUCCACGUGUU [theeternabot_sameState_KL_Trp_A_33]"
  answer.label: "Criterion not met"
- polymer.sequence: "CGCCGCAAGGCGAGCGCUCCCACUCCGGAAGGAGCGCCCGUAAGGGCAGGUAGGUCGCCGGAGUGAUGUUCCGGUGGAGGGCUCG [#2 Exclusion - Arginine A Attempt #14 (Inspired by Omei)]"
  answer.label: "Criterion not met"
- polymer.sequence: "UCUGCAAAGUCGGCCGCCACUCCGGGCCCUAUAAAUGGGCGCAGUGAUGUUGCGGCUAGGCCUCUGAGGACCGGGACUUCGUAGA [Somale]"
  answer.label: "Criterion not met"
- polymer.sequence: "GGAUCCACCAGUGAUGUUGGAGAAAACUCAAAGGAUAUGACGAAAGUCAGAAGGUUGUAGACUGGACAAAGUCCGGUCGGAUCCA [FmnA 19 A30+U56]"
  answer.label: "Criterion met"
- polymer.sequence: "CAAAUAUGCGGUAGGUUCAAGCGCUGGGAAGGAGCGCAGAUGACUGCAGGUAGGUCGCCCAGUGAUGUUGGGCUUUCCACCUAUU [Edbeaan]"
  answer.label: "Criterion not met"
- polymer.sequence: "GACGGGCAGUGAUGUUGCCGGUCUCUUGGACGAGGACCGGUACGGCCGCCACUCGAUCUGAUGCGAGAAUUGUAUCUUUUAAUAA [Tegesosoat]"
  answer.label: "Criterion not met"
- polymer.sequence: "GUUACGCAUGGAAGGAGCGCACUCCGGUUGAUCGACACAGUGAUGUUGUGGUUCAUUCGAAUGCAGGUAGGUCGCCAUGUGUAAC [Ex Arginine B K4 15]"
  answer.label: "Criterion met"
- polymer.sequence: "CGAGUGAUGUUCGUUCGUUUAUUUGGGUGACAGGAUAUGCGGAAACGCAGAAGGGUCACCUUCGGGUUACCCGAAUUAACGUUAU [#09 K4 FMN A Exclusion]"
  answer.label: "Criterion met"
- polymer.sequence: "UCCUAGGCUCGAAAGAGCCUAGGUAAGACUCAGGAUAUCUGGAAACAGAGAAGGGAGCUACUAGUGAUGUUAGGAAUUCCCAUUU"
  answer.label: "Criterion not met"
- polymer.sequence: "AUGUUGAGCGGAAGGAGCGGCUGAGCCAGUGAUGUUGGUUAAUCCAAGUGAUGUUGGAAAAGCCAGGUAGGUCGCCGUUUUACGU [whbob_SS_Arginine_B_2t145]"
  answer.label: "Criterion met"

* * *

Test system: MS2 coat protein
Assay: apparent KD of MS2 coat protein; designed switch direction (-1 OFF switch, 1 ON switch): 1; higher = weaker reporter binding
Conditions: Eterna round: R95; input ligand: FMN 200 uM
measured.quantity: apparent KD of MS2 coat protein (nM)

- polymer.sequence: "UCUUGGUUUUUGCUCGUUUUUUGUGUUGAACAUGAGGAUCACCCAUGUAUUGUACGGUCCGGUUUAAUAAUGGUCCG [JMF 12] (puzzle: Sensor for hsa-mir-208a)"
  assayed.system: "MS2 coat protein"
  recorded.result: 25
- polymer.sequence: "UUAUAACAUGAGGAUCACCCAUGUCAACAAAGUCGAGGAUAUGGGCAGAGAGGAGAAGAACCAGAAGGCGAAUAUU [Mat - Same State 1 - Mod of UCT - D38] (puzzle: Same State 1)"
  assayed.system: "MS2 coat protein"
  recorded.result: 91.2
- polymer.sequence: "AUAAGUUCGAUGCUCGUCUCUCCGUACUAACAUGAGGAUCACCCAUGUGGUCGGGAAGUAGCCCGACCAGUAUGGCC [Vearebe] (puzzle: Sensor for hsa-mir-208a)"
  assayed.system: "MS2 coat protein"
  recorded.result: 65.4
- polymer.sequence: "AAAGUACAUGAGGAUCACCCAUGUCCAAAAAAGUAAGGAUAUGUGGUGCGACUACGAAACACAGAAGGUACAAAAA [Malcolm Mod] (puzzle: Same State 1)"
  assayed.system: "MS2 coat protein"
  recorded.result: 30.1
- polymer.sequence: "AUAAGUCCGAUGCUCGUCUCUCCGUACAAACAUGAGGAUCACCCAUGUGAUCGGGAAGUAGCCCGAUCAGUAUGGCC [Erardius] (puzzle: Sensor for hsa-mir-208a)"
  assayed.system: "MS2 coat protein"
  recorded.result: 45.5
- polymer.sequence: "UGUCCAGCCUGUGCUGGUCUUUUGCAUGUACAUGAGGAUCACCCAUGUCGUGUUCAUGCUUUUUGCUCGUCUUUAAA [Photon Torp-02] (puzzle: Sensor for hsa-mir-208a)"
  assayed.system: "MS2 coat protein"
  recorded.result: 49.7
- polymer.sequence: "CGGCGCUGUCGAGAGGAUAUGCGGUGAUGGACAUGAGGAUCACCCAUGUUAGCGAUAGCAUUACGGUAGAAGGCUCUACAGUUGC [Soteed Omei mod 8] (puzzle: Same State 2)"
  assayed.system: "MS2 coat protein"
  recorded.result: 19.2
- polymer.sequence: "AGUCCAGCCUGAGCUGGACAAAGGCAUGUACAUGAGGAUCACCCAUGUUCAUGUACAAGCUUUUUGCUCGUCUUAAA [Zipper 52 - 1] (puzzle: Sensor for hsa-mir-208a)"
  assayed.system: "MS2 coat protein"
  recorded.result: 140
- polymer.sequence: "GUUAAACAUGAGGAUCACCCAUGUAAUAAUAUGGGAGGAUAUCAGAAAUUAUUUAUUAAAUGAGAAGGCCUAAUUG [Mat - Same State 1 - Mod of Eli - D81] (puzzle: Same State 1)"
  assayed.system: "MS2 coat protein"
  recorded.result: 53.6
- polymer.sequence: "AGCUAUCGAAAACGAUAGCAAAAGCAUGUACAUGAGGAUCACCCAUGUCAUGUACAAGCUUUUUGCUCGUCUUGAAA [Zipper 23 - 9] (puzzle: Sensor for hsa-mir-208a)"
  assayed.system: "MS2 coat protein"
  recorded.result: 132
- polymer.sequence: "AGCUAUCGCGUACGAUAGCUGAAGCAUGUACAUGAGGAUCACCCAUGUCAUGUACAGGCUUUUUGCUCGUCUUAUUG [JL-shm-2.27 JL mod] (puzzle: Sensor for hsa-mir-208a)"
  assayed.system: "MS2 coat protein"
  recorded.result: 770
- polymer.sequence: "CGUCCGGCCUGUGCUGGCCGGUGGCUUGUACAUGAGGAUCACCCAUGUUCUUGUGCUGGCUUUUUGCUCGUCGUGUG [salish99_mir208a_r3_023] (puzzle: Sensor for hsa-mir-208a)"
  assayed.system: "MS2 coat protein"
  recorded.result: 32.6
- polymer.sequence: "AUAUAACAUGAGGAUCACCCAUGUCUCUAAAGUUGAGGAUAUGGGCAGGUUAUAUCCGAACCAGAAGGCGAAUUAU [SS1 Teenbexe 7] (puzzle: Same State 1)"
  assayed.system: "MS2 coat protein"
  recorded.result: 74.5
- polymer.sequence: "AGUCCAGCCUGAGCUGGACAAAGGCAUGUACAUGAGGAUCACCCAUGUCAUGUACAAGCUUUUUGCUCGUCUUAAUA [Zipper 49 - 1] (puzzle: Sensor for hsa-mir-208a)"
  assayed.system: "MS2 coat protein"
  recorded.result: 177
- polymer.sequence: "GGUCCAGCCUGAGCUGGACAAAAGCAUGUACAUGAGGAUCACCCAUGUCAUGUGCAAGCUUUUUGCUCGUCUUAAAA [JL mod - D87 - 4] (puzzle: Sensor for hsa-mir-208a)"
  assayed.system: "MS2 coat protein"
  recorded.result: 67.3
- polymer.sequence: "AAAGCACAUGAGGAUCACCCAUGUGGAAAUAACACAGGAUAUCCGGCCGAAAAUACGGUGGGAGAAGGGUGACCUA [Inxetemama] (puzzle: Same State 1)"
  assayed.system: "MS2 coat protein"
  recorded.result: 302
- polymer.sequence: "AGUCCAGCCAAAGCUGGACAAAAGCAUGUACAUGAGGAUCACCCAUGUUCAUGUACAAGCUUUUUGCAAGUCAAAAU [Mat - hsa-mir-208a - Mod of JL - 78] (puzzle: Sensor for hsa-mir-208a)"
  assayed.system: "MS2 coat protein"
  recorded.result: 542
- polymer.sequence: "GGAGCCGACACUGAGGAUAUUCAUAUUAAAACAUGAGGAUCACCCAUGUAGGCCAGAAGGCCUUGGGAGAAGGCAGGUCGGCCCG [Bibimoar - 2] (puzzle: Same State 2)"
  assayed.system: "MS2 coat protein"
  recorded.result: 15.9
- polymer.sequence: "GAGAGAGGAAGCGAGGAUAUCGUGUUGAGUACAUGAGGAUCACCCAUGUUGUAGGUAGAGGUAGGCGAGAAGGCGCAGGAGAAGA [JR_SS2_Sub0100] (puzzle: Same State 2)"
  assayed.system: "MS2 coat protein"
  recorded.result: 50.2
- polymer.sequence: "UGUCCAGCCUGUGCUGGUCUUUAGCAUGUACAUGAGGAUCACCCAUGUCGUGUACAUGCUUUUUGCUCGUCUUUAAA [Photon Torp-05] (puzzle: Sensor for hsa-mir-208a)"
  assayed.system: "MS2 coat protein"
  recorded.result: 68.9
- polymer.sequence: "AGUCUACGGUGACGUAGACAGUGGUGCGUACAUGAGGAUCACCCAUGUCAUGUGAGAGUUACUUGUUCGUCUUGAGC [SENSOR #4] (puzzle: Sensor for hsa-mir-208a)"
  assayed.system: "MS2 coat protein"
  recorded.result: 20.7
- polymer.sequence: "GGAUAACAUGAGGAUCACCCAUGUCAACAAAGUCGAGGAUAUGGGCAAUUAUAAUUAGAACCAGAAGGCGAAUAGG [Mat - Same State 1 - Mod of UCT - D44] (puzzle: Same State 1)"
  assayed.system: "MS2 coat protein"
  recorded.result: 55.9
